Biological target: T1, human plasma IgG4 (human, UniProt P01861-1 1-327 = IgG part)
T1 construct: Plasma-derived IgG isoform, bought
T1 sequence (P01861 other isoform, or with tags, fused parts or gaps): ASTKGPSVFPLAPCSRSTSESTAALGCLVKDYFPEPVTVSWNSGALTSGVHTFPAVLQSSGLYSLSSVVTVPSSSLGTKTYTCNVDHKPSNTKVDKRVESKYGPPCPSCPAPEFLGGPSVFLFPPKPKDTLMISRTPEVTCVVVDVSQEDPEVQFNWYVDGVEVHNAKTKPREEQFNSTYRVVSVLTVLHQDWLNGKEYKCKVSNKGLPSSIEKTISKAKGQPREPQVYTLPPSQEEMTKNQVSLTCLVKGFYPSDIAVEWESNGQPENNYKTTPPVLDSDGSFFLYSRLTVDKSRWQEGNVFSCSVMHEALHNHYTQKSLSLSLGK
Experiment: Oregon Green peptide, pH 4.0 - salt
REPORTED PROPERTY: Kd

>>> recorded_result("AGAATCSTSYWYYQWFCTDSPGPEGGGK (N-terminal acetyl (Ac-); C-terminal amide (-NH2); Oregon Green labeled, Synthesised by BACHEM, Oregon Green labeled, HPLC purified) [DX398]")
"1600 nM"
